# Test system: Gamma-secretase
# Method summary: Modulation of gamma secretase in human H4 cells overexpressing human APP assessed as increase in amyloid beta-38 secretion after 22 hrs
Readout: pEC50
Note on pEC50: it is the negative log10 of concentration, concentration in mol/L.

For Gamma-secretase, provide pEC50 of COc1cc(Nc2nc(C)c(Cc3cccc(Cl)c3)s2)ccc1-c1cnco1 please.
5.82

* * *

# Test system: Inosine-5'-monophosphate dehydrogenase 2 (Homo sapiens, UniProt P12268)
Readout: IC50 (nM)
Form entry: value (nM) — number only.

Which measured IC50 value corresponds to COc1cc(Nc2nc(C)c(Cc3cccc(Cl)c3)s2)ccc1-c1cnco1 ?
400

* * *

Record form. Attribute: IC50. Fill in for each entry.
Form entry: value (µM) — number only.

For Cytochrome P450 3A4 (Homo sapiens), provide IC50 of COc1ccc(Br)cc1-c1csc(Nc2ccc(-n3cnc(C)c3)cc2)n1 please.
1.2

For Cytochrome P450 3A4 (Homo sapiens), provide IC50 of COc1ccc(Br)cc1-c1csc(Nc2ccc(-n3cnc(C)c3)c(OC)c2)n1 please.
2.2

* * *

pIC50: −log10 of the molar value.
Readout: pIC50

For UniProt:P10635, provide pIC50 of COc1cc(Nc2nc3c(s2)CCCC3c2ccccc2)ccc1-n1cnc(C)c1 (stereo not given) please.
Sequence (P10635 whole entry): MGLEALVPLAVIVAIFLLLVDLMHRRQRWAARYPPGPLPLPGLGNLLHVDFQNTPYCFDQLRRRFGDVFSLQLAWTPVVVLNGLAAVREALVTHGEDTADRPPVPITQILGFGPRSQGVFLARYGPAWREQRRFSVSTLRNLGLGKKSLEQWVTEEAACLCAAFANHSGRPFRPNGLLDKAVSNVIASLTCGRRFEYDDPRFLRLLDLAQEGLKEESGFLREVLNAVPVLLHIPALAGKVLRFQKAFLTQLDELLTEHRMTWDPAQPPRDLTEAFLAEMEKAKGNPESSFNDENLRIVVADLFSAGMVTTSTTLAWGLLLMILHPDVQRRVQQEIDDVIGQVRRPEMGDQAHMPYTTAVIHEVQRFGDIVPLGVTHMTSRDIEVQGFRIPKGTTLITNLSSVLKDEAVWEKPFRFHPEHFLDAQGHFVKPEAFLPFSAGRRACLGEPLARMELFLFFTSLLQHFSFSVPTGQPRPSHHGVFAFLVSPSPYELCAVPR
> 6.70

For UniProt:P10635, provide pIC50 of COc1cc(Nc2nc3c(s2)CCCC3c2ccccc2)ccc1-c1cnc(C)o1 (stereo not given) please.
> 6.30

For UniProt:P10635, provide pIC50 of Cc1cn(-c2ccc(Nc3nc4c(s3)CCCC4c3ccccc3)cc2Cl)cn1 (stereo not given) please.
> 6.70

For UniProt:P10635, provide pIC50 of COc1cc(Nc2nc(C(C)(C)c3ccc(Cl)cc3)cs2)ccc1-n1cnc(C)c1 please.
> 6.30

For UniProt:P10635, provide pIC50 of COc1cc(Nc2ncc(C(O)c3ccc(Cl)cc3)s2)ccc1-n1cnc(C)c1 (stereo not given) please.
> 6.30

For UniProt:P10635, provide pIC50 of COc1cc(Nc2nc3c(s2)CCCC3c2ccccc2)ccc1C#N (stereo not given) please.
> 6.30

For UniProt:P10635, provide pIC50 of Cc1cn(-c2ccc(Nc3nc4c(s3)CCCC4c3ccccc3)cc2C(F)(F)F)cn1 (stereo not given) please.
> 6.30

For UniProt:P10635, provide pIC50 of COc1ccc(Br)cc1-c1csc(Nc2ccc(-n3cnc(C)c3)cc2)n1 please.
> 6.30

For UniProt:P10635, provide pIC50 of COc1cc(Nc2nc3c(s2)CCCC3c2ccccc2)ccc1-c1nc(C)no1 (stereo not given) please.
> 6.30

For UniProt:P10635, provide pIC50 of COc1cc(Nc2nc(C)c(Cc3cccc(Cl)c3)s2)ccc1-c1cnco1 please.
> 6.30

* * *

# Test system: Gamma-secretase
# Method summary: Inhibition of gamma secretase in human H4 cells overexpressing human APP assessed as reduction in amyloid beta-42 secretion after 22 hrs
# Assay type: cell-based
Label 1 when IC50 < 300 nM; otherwise -1.

Is IC50 of COc1ccc(Br)cc1-c1csc(Nc2ccc(-n3ccnc3)c(OC)c2)n1 strictly below 300 nM?
-1

Is IC50 of COc1cc(Nc2nc3c(s2)CCCC3c2ccccc2)ccc1-c1cnc(C)s1 (stereo not given) strictly below 300 nM?
1

Is IC50 of COc1ccc(Br)cc1-c1csc(Nc2ccc(-n3cnc(C)c3)c(OC)c2)n1 strictly below 300 nM?
-1

Is IC50 of c1ccc(C2CCCc3sc(Nc4ccc(-n5cncn5)cc4)nc32)cc1 (stereo not given) strictly below 300 nM?
-1

Is IC50 of Cc1cn(-c2ccc(Nc3nc4c(s3)CCCC4c3ccccc3)cc2C(F)(F)F)cn1 (stereo not given) strictly below 300 nM?
-1

Is IC50 of COc1cc(Nc2nc3c(s2)CCCC3c2ccccc2)ccc1-c1nc(C)no1 (stereo not given) strictly below 300 nM?
-1

Is IC50 of COc1cc(Nc2ncc(C(O)c3ccc(Cl)cc3)s2)ccc1-n1cnc(C)c1 (stereo not given) strictly below 300 nM?
-1

Is IC50 of COc1cc(Nc2nc3c(s2)CCCC3c2ccccc2)ccc1-c1nnc(C)o1 (stereo not given) strictly below 300 nM?
-1

Is IC50 of c1ccc(C2CCCc3sc(Nc4ccc(-c5ccncc5)cc4)nc32)cc1 (stereo not given) strictly below 300 nM?
-1

Is IC50 of Cc1nc(C)c(-c2ccc(Nc3nc4c(s3)CCCC4c3ccccc3)cc2)o1 (stereo not given) strictly below 300 nM?
1
